system: Hek293T; assay: Primary qHTS to identify gynecologic anti-cancer compounds using libraries of approved drugs and bioactive compounds (AID 1345084); details: Gynecologic cancer cell panel viability, ATPlite luminescence, 48 h, control line for the selectivity index; series mostly up to 57.5 µM; note: nearly all actives have a fitted effect of over 55% in size
Records with an inconclusive call do not appear. The source made the active and inactive calls. Calls come from the whole dose curve; as a rule, active = well fitted cell-killing curve with a large enough effect; inconclusive = small, poorly fitted or top-dose-only effect, or effect the other way; inactive = flat fitted curve, though single readings scatter.
quantity_kind: activity change, negative = cytotoxicity

| compound | tested_target | experimental_result |
| --- | --- | --- |
| OC[C@@]1(O)CO[C@H](OC[C@H]2O[C@@H](OCCc3ccccc3)[C@H](O)[C@@H](O)[C@@H]2O)[C@@H]1O | Hek293T | inactive |
| C[C@@H]1O[C@@H](OC[C@H]2O[C@@H](OCc3ccccc3)[C@H](O)[C@@H](O)[C@@H]2O)[C@H](O)[C@H](O)[C@H]1O | Hek293T | inactive |
| C[C@@H]1C(=O)O[C@H](C)[C@H]1C[C@@H](O)[C@](C)(O)[C@H]1CC[C@@]2(O)C3=CC(=O)[C@@H]4C[C@@H](O)[C@@H](O)C[C@]4(C)C3CC[C@]12C (stereo partly drawn) | Hek293T | inactive |
